assay explanation: binders from COS7 lysate, DM2A8 probe, primary screen, torsin A project, cell lysate, small-molecule microarray, fluorescence 635/667 (AID 1065)
condition info: higher = more signal, COS7 lysate expressing mutant human TOR1A
Please enter YES where composite z-score is greater than or equal to -0.07, and NO where it is lower.

{"compound": "COc1ccc(CCNC(=O)[C@@H]2c3ccccc3C(=O)N(Cc3ccccc3C(F)(F)F)[C@H]2c2ccc(CO)cc2)cc1", "discrete label": "YES"}
{"compound": "COCCOC(=O)N1C(=O)[C@@]2(c3cc(C#CCCO)ccc31)[C@H](c1ccc(OCCO)cc1)N1[C@H](c3ccccc3)[C@H](c3ccccc3)OC(=O)[C@H]1[C@@H]2C(=O)N1CCc2cc(OC)c(OC)cc2C1", "discrete label": "YES"}
{"compound": "COC(=O)[C@@]1(Cc2ccccc2)[C@H]2c3cc(C(=O)N4CCCC4)n(Cc4ccccc4)c3C[C@H]2CN1C(=O)c1ccccc1", "discrete label": "NO"}
{"compound": "O=C1O[C@H](c2ccccc2)[C@H](c2ccccc2)N2[C@H]1[C@@H](C(=O)NC[C@H](O)c1ccccc1)[C@]1(C(=O)Nc3ccccc31)[C@H]2c1ccccc1OCCO", "discrete label": "YES"}
{"compound": "COC(=O)C(CC#Cc1ccc2c(c1)[C@]1(C(=O)N2)[C@H](c2ccccc2OCCO)N2[C@H](c3ccccc3)[C@H](c3ccccc3)OC(=O)[C@H]2[C@@H]1C(=O)Nc1nc2ccccc2s1)C(=O)OC", "discrete label": "YES"}
{"compound": "[N-]=[N+]=Nc1ccccc1[C@H]1OC(c2ccc(OCCCO)cc2)=N[C@@]1(Cc1ccccc1)C(=O)NCc1ccccc1", "discrete label": "NO"}

Evaluate COc1ccc([Si](C)(C)[C@H]2[C@H](CC(=O)N3CCC[C@H]3CO)O[C@@]3(C(=O)N(Cc4ccc(N5C(=O)c6cccc7cccc5c67)cc4)c4ccccc43)[C@@H]2C)cc1 : composite z-score at minimum -0.07? YES

Evaluate COC(=O)[C@H]1N=C(c2ccc(OCCCO)cc2)O[C@H]1c1ccccc1CN=[N+]=[N-] : composite z-score at minimum -0.07? NO

Evaluate CC(C)(C)OC(=O)CC[C@@]1(C(=O)N2CCCCC2)N=C(c2ccc(OCCCO)cc2)O[C@@H]1c1ccccc1CN=[N+]=[N-] : composite z-score at minimum -0.07? YES

---

assay explanation: changes in parasitized red cell lysis, either direction – P. falciparum Indochina, OD700, 3 h, PSAC antagonist project, primary screen (AID 1156)
condition info: P. falciparum-infected erythrocytes, osmotic lysis, higher = more signal, called active from +8 up or from −8 down
assay endpoint: z-score
The response must contain the number and no unit.

The examples below pair each entry with its known result.
{"molecule": "COCCCNC(=O)[C@@]1(Cc2ccccc2CN=[N+]=[N-])N=C(c2ccc(OCCCO)cc2)O[C@H]1c1ccccc1N=[N+]=[N-]", "test result": 2.72}
{"molecule": "CCOc1cc(C(O)C2C=CC3C(=O)NC(=O)C3N2Nc2ccccn2)ccc1O (stereo not drawn)", "test result": -0.195}
{"molecule": "CCCC=C(CCC)[C@@H](NS(=O)(=O)c1cccc2cccnc12)c1ccc(C(=O)OC)cc1", "test result": -0.722}

Look at this molecule and give its reported z-score. C=CCNC(=O)[C@H]1[C@@H]2C(=O)O[C@@H](c3ccccc3)[C@@H](c3ccccc3)N2[C@@H](c2ccc(OCCO)cc2)[C@]12C(=O)N(C(=O)OCCOC)c1ccc(C#CC3=CCCCC3)cc12 0.178

Look at this molecule and give its reported z-score. C=C(/C(=C/C[C@@H](OC(=O)c1ccncc1)c1cccc(OCCO)c1)c1cc(C(=O)OC)ccc1OC)C(C)C 2.43

Look at this molecule and give its reported z-score. COCCOC(=O)N1C(=O)[C@@]2(c3cc(C#Cc4ccc(OC)cc4)ccc31)[C@H](c1ccc(OCCO)cc1)N1[C@H](c3ccccc3)[C@H](c3ccccc3)OC(=O)[C@H]1[C@@H]2C(N)=O 0.528

Look at this molecule and give its reported z-score. Cc1ccc(S[C@]2(C(=O)NCC(C)C)CC(=O)N(C3CCCCC3)[C@@H]2c2ccc(CO)cc2I)cc1 0.796

Look at this molecule and give its reported z-score. COC(=O)[C@@]1(Cc2ccc(OC)cc2)[C@H]2c3cc(C(=O)N(C)C)n(CCF)c3C[C@H]2CN1C(=O)c1ccccc1 0.865
